Documented GI50 across a set of compounds
# Tested on: KM12
# EXPERIMENT: NCI tumour cell line growth inhibition, 48 h
The source made the active and inactive calls. Cut-off read from the data, not from the text of the source: active = GI50 up to about 1.1 µM and inactive = higher.
MEASUREMENT NAME: GI50

1. CCNCCCCNCC ... > 3750 µM (inactive)
2. CN(C)c1ccc(C2SCC(=O)N2c2nc3cc4sc(N5C(=O)CSC5c5ccc(N(C)C)cc5)nc4cc3s2)cc1 (stereo unspecified) ... 39.5 µM (inactive)
3. CC1=CCC2CC1C(C(=O)c1c[nH]c3ccccc13)=NC2(C)C (stereo unspecified) ... 52.4 µM (inactive)
4. CCOC(=O)/C=C1\Oc2ccccc2C1(C)O (stereo unspecified) ... > 100 µM (inactive)
5. COc1ccc2c(=O)cc(-c3ccncc3)oc2c1OC ... 26.4 µM (inactive)
6. O=C1NC(=O)C(CC2CCCCCCCCCCC2=O)C(=O)N1 (stereo unspecified) ... > 100 µM (inactive)
7. O=C1c2ccccc2C(=O)N1CCN(CCN1C(=O)c2ccccc2C1=O)Cn1cccn1 ... > 100 µM (inactive)
8. COc1cc(OC)c(-c2cc(=O)c3c(OC)c(OC)c(OC)c(OC)c3o2)cc1OC ... 74.1 µM (inactive)
9. COc1ccc(NC2Oc3cc4c(cc3C(c3cc(OC)c(O)c(OC)c3)C2C)OCO4)cc1 (stereo unspecified) ... 4.78 µM (inactive)
10. COc1cc(C[C@H]2C(=O)OC[C@@H]2Cc2ccc(OC)c(OC)c2)cc(OC)c1 ... 51.6 µM (inactive)
11. Nc1cc(O)nc(SC2=NC(N)CC(O)C2)n1 (stereo unspecified) ... > 100 µM (inactive)

###

# Tested on: OVCAR-5
# EXPERIMENT: NCI tumour cell line growth inhibition, 48 h
Calls of active or inactive are those of the source. Rule as the data show it: active = GI50 up to about 1.1 µM and inactive = higher.
MEASUREMENT NAME: GI50

1. O=C(CCCl)NN=C1NCCCN1 ... > 100 µM (inactive)
2. CCOC(=O)C1C2CCC1CC(=NNc1ccc([N+](=O)[O-])cc1[N+](=O)[O-])C2 (stereo not given) ... > 50 µM (inactive)
3. C[C@]12CCC(=O)C=C1CC[C@@H]1C2CC[C@]2(C)NC(=O)C(C#N)CC12 (stereo not given in full) ... > 100 µM (inactive)
4. Cc1cc(N(CCC#N)CCC#N)ccc1/N=N/c1cc(Cl)ccc1Cl ... 14.4 µM (inactive)
5. CC1=C(c2ccc(C)cc2)NC(=S)C(C)C(c2ccc(C)cc2)=N1 (stereo not given) ... > 100 µM (inactive)

###

# System: SR
# EXPERIMENT: NCI tumour cell line growth inhibition, 48 h
Active and inactive are the calls of the source. No stated cut-off is given here; in the data, active = GI50 up to about 1.1 µM and inactive = higher.
Outcome codes: active, inactive

1. O=C1NC2C(=CC(O)C(O)C2O)c2cc3c(cc21)OCO3 (centres undefined) ... active
2. Nc1n[nH]c2c(C(=O)Nc3ccc(Cl)cc3)c(N)n(N)c(=O)c12 ... inactive
3. CCc1c(Cc2[nH]c(Cc3[nH]c(C=O)c(C)c3CC)c(CC)c2CC)[nH]c(C=O)c1C ... inactive
4. CC(C)[Si]1(C(C)C)OCC2OC(n3c(C(=O)c4ccccc4)cc(=O)[nH]c3=O)CC2O[Si](C(C)C)(C(C)C)O1 (centres undefined) ... inactive
5. O=C1NC(=O)C(CC2CCCCCCCCCCC2=O)C(=O)N1 (centres undefined) ... active
6. Cc1nc2ccccc2cc1C[N+]12CN3CN(CN(C3)C1)C2 ... inactive
7. CSCCC(NC(=O)OCc1ccccc1)NC(=O)OCc1ccccc1 ... inactive
8. COc1ccc(/C=c2/s/c(=C(\C#N)c3nc4ccccc4[nH]3)n(-c3ccccc3)c2=O)cc1 ... inactive
9. CCCN(CCC)C(=S)N/N=C(/C)c1ccccc1O ... inactive
10. CC(=O)Nc1ccc(S(=O)(=O)N=S(C)C)cc1 ... inactive
11. O=C(CCCCCCCCC(=O)N1C(=O)CC(=O)N(c2ccc(Cl)cc2)C1=S)N1C(=O)CC(=O)N(c2ccc(Cl)cc2)C1=S ... inactive
12. Cc1nc2ccc(C(F)(F)F)cc2nc1Nc1ccc(Cl)c(Cl)c1 ... inactive
13. CCC1(O)CN(CCOC)[C@H]2C[C@@H]1C(=O)c1[nH]c3ccccc3c12 (some centres undefined) ... inactive
14. CC1C2CC(C(C3C(=O)C4CC3C(C)(C)C4C)C2=O)C1(C)C (centres undefined) ... inactive
15. CC(=O)N(C)SCC(NC(=O)C(Cc1ccccc1)NC(=O)OCc1ccccc1)C(=O)NC(Cc1ccccc1)C(=O)NC(Cc1cn(C=O)c2ccccc12)C(=O)NC(CCCCNC(=O)OCc1ccccc1)C(=O)NC(C(=O)NC(CSN(C)C(C)=O)C(=O)NO)C(C)OCc1ccccc1 (centres undefined) ... inactive
16. Cn1cncc1CC1COC(=O)C1C(O)c1ccccc1 (centres undefined) ... inactive
17. CC1=C(c2ccc(C)cc2)NC(=S)C(C)C(c2ccc(C)cc2)=N1 (centres undefined) ... inactive
18. O=C(c1c(F)c(F)c(F)c(F)c1F)n1c(=S)n(C(=O)c2c(F)c(F)c(F)c(F)c2F)c2ccccc21 ... inactive
19. CC1NC(=O)C2=C1C(N)=NC(=O)C2 (centres undefined) ... inactive

###

Overview of reported GI50 across a group of molecules:
# Tested on: SNB-75
# EXPERIMENT: NCI tumour cell line growth inhibition, 48 h
Calls of active or inactive are those of the source. Rule as the data show it: active = GI50 up to about 1.1 µM and inactive = higher.
MEASUREMENT NAME: GI50

1) CC1(C)N=C(N)N=C(N)N1c1ccc(CCCCc2ccc(S(=O)(=O)F)cc2Cl)c(Cl)c1 ... 9.23 µM (inactive)
2) Cc1c(Cl)c(S(N)(=O)=O)cc(S(N)(=O)=O)c1NC(=O)c1ccc(Cl)cc1 ... > 100 µM (inactive)
3) CC1=C(C(=O)Nc2cccc(C(F)(F)F)c2)C(c2ccc(O)cc2)C(C(=O)Nc2cccc(C(F)(F)F)c2)=C(C)N1 ... 17.2 µM (inactive)
4) Cc1ccc(S(=O)(=O)N(c2ccccc2F)C2CCCCC2O)cc1 (stereo not given) ... 20 µM (inactive)
5) CC(C)=C[C@@H]1C[C@H](C)[C@H]2CC[C@H](C)[C@H]3C(=O)C(O)=C(C)C(=O)[C@]123 ... > 100 µM (inactive)
6) O=C1NC(=O)C(C(=O)C(=O)Nc2cc(Cl)ccc2Cl)C(=O)N1 ... 83.2 µM (inactive)
7) C=C(Br)CN(CC(=C)Br)C(C)=O ... > 100 µM (inactive)
8) CCOc1ccc2c(c1)[n+]([O-])c(-c1nc3ccccc3s1)c(N)[n+]2[O-] ... 57.4 µM (inactive)
9) CC(C)[Si]1(C(C)C)OCC2OC(n3c(C(=O)c4ccccc4)cc(=O)[nH]c3=O)CC2O[Si](C(C)C)(C(C)C)O1 (stereo not given) ... 3.02 µM (inactive)
10) CN1N=C(c2ccncc2)OC1c1ccc(Cl)cc1Cl (stereo not given) ... 12.6 µM (inactive)
11) O=C(NCCNCCO)N/N=C/c1cccc([N+](=O)[O-])c1 ... > 100 µM (inactive)
12) COC(=O)[C@]12CC[C@H]3CN(C(=O)OCc4ccccc4)[C@H]([C@H]31)[C@H](c1ccccc1)N2 ... > 100 µM (inactive)
13) CC(C)c1nccn1Cc1ccc(Cl)cc1Cl ... 36.5 µM (inactive)
14) CNC1CC(n2cc(C)c(=O)[nH]c2=O)OC1CO (stereo not given) ... > 100 µM (inactive)
15) COc1nc(N=P(c2ccccc2)(c2ccccc2)c2ccccc2)cc(=O)[nH]1 ... > 100 µM (inactive)
16) Nc1n[nH]c2c(C(=O)Nc3ccc(Cl)cc3)c(N)n(N)c(=O)c12 ... > 100 µM (inactive)
17) O=c1cnn(C/C=C\CO)c(=O)[nH]1 ... > 100 µM (inactive)
18) COc1cccc(C2c3cc4c(cc3OC(NNS(=O)(=O)c3ccc(C)cc3)C2C)OCO4)c1OC (stereo not given) ... 2.52 µM (inactive)
19) NNC(=S)N/N=C(\C(=O)Nc1cccc(O)c1)C1C(=O)NC(=S)NC1=O ... > 100 µM (inactive)
20) NC(=O)c1oc([N+](=O)[O-])c(-c2ccccc2)c1-c1ccccc1 ... 65.9 µM (inactive)

###

# System: DLD-1
# EXPERIMENT: NCI tumour cell line growth inhibition, 48 h
The source made the active and inactive calls. No stated cut-off is given here; in the data, active = GI50 up to about 1.1 µM and inactive = higher.
Outcome codes: active, inactive

1. NC(=O)C(=O)N/N=C(\CC1(O)C(=O)Nc2ccccc21)c1ccc2ccccc2c1 (stereo not given) ... inactive
2. COc1ccc2c(c1)O[C@H]1c3ccc(O)cc3OC[C@@H]21 ... inactive
3. CC1=C(C(=O)Nc2ccccc2C)C(c2ccc(Cl)c(Cl)c2)C(C(=O)Nc2ccccc2C)=C(C)N1 ... inactive
4. CC1CCC(=O)C(C(O)CC2CC(=O)N(c3ccccc3)C(=O)C2)C1 (stereo not given) ... inactive
5. Cc1c2n(c(=O)[nH]c1=O)C1OC(CO)C(O2)C1O (stereo not given) ... inactive
6. CC(=O)C1CC(C)=CCC12C(=O)Nc1ccccc12 (stereo not given) ... inactive
7. COC(=O)C1C(=O)O[C@@H](c2ccc(OC)cc2OC)C1C(=O)OC (stereo not given in full) ... inactive
8. NCCCCNCCCNC(=O)c1nc(-c2nc(CCN)sc2Cl)sc1Cl ... inactive
9. CNC1CC(n2cc(C)c(=O)[nH]c2=O)OC1CO (stereo not given) ... inactive
10. COC(=O)C1=C(C)N(NC(=O)Nc2ccccc2)C2(N)N(NC(=O)Nc3ccccc3)C(C)=C(C(=O)OC)C12C(=O)OC (stereo not given) ... inactive
11. CC(=O)OC12C=CC(=O)N1c1ccccc1C(=O)O2 (stereo not given) ... inactive
12. Cc1cc(NS(=O)(=O)c2ccc(Nc3c4ccccc4nc4c(C(=O)NCCN(C)C)cccc34)cc2)no1 ... inactive
13. COc1ccc(NC(=O)CC(=O)N/N=C/c2ccc(N(CCC#N)S(C)(=O)=O)cc2)cc1 ... inactive
14. CN[C@@H](C)[C@@H](NC)c1ccccc1 ... inactive
15. CC(C)(O)/C=C/C(=O)[C@](C)(O)[C@H]1[C@H](O)C[C@@]2(C)[C@@H]3CC=C4[C@@H](C[C@H](O)C(=O)C4(C)C)[C@]3(C)C(=O)C[C@]12C [CUCURBITACIN D] ... active
16. NC(=O)c1ccccc1NC(=O)C(=O)Nc1n[nH]c(N)n1 ... inactive
17. NC(=O)c1[nH]nc(C2OC(CO)C(O)C2O)c1O (stereo not given) ... inactive
18. CCc1c(Cc2[nH]c(Cc3[nH]c(C=O)c(C)c3CC)c(CC)c2CC)[nH]c(C=O)c1C ... inactive
19. COC(=O)c1ccc(/C=C/S(=O)(=O)c2ccccc2)cc1 ... inactive
20. O=C(NCCNCCO)N/N=C/c1cccc([N+](=O)[O-])c1 ... inactive

Where do these numbers come from? They come from ChEMBL document CHEMBL1201862.
